Each entry below carries its reported inhibition at 10 µM.
target: human B1R receptor (hB1R) (Homo sapiens); construct: host or cells: CHO K1 cells; experiment: FLIPR Ca2+ assay on hB1R-transfected CHO K1 cells, antagonistic action; assay type: cell-based; settings: CHO-K1, 10 μM test substance; agonist Lys-Des-Arg9-bradykinin 0.5 nM; % of maximum achievable inhibition; read-out: hB1R [10 μM] % inhibition
A number alone suffices; assume %.

| COMPOUND | inhibition at 10 µM, % |
| --- | --- |
| COc1cc(C)c(S(=O)(=O)N2CCCC(COCC(=O)NC3CCC(c4ccccc4)(N4CCCC4)CC3)C2)c(C)c1 (stereo not shown) | 95 |
| COc1cc(C)c(S(=O)(=O)N2CCCCC2COCC(=O)N2CCC(c3cccc(F)c3)(N3CCN(C)CC3)CC2)c(C)c1 (stereo not shown) | 100 |
| CN(C)C1(Cc2ccccc2)CCN(C(=O)CC2CCCCN2S(=O)(=O)c2cccc(C(F)(F)F)c2)CC1 (stereo not shown) | 102 |
| COc1cc(C)c(S(=O)(=O)N2CCCCC2COCC(=O)N(C)CCC2CCC(Cc3ccccc3)(N(C)C)CC2)c(C)c1 (stereo not shown) | 104 |
| COc1cc(C)c(S(=O)(=O)N2CCCCC2COCC(=O)N(C)CCCC2CCC(c3cccc(F)c3)(N3CCCC3)CC2)c(C)c1 (stereo not shown) | 99 |
| COc1cc(C)c(S(=O)(=O)N2CCCCC2COCC(=O)N(C)CC2CCC(Cc3ccccc3)(N3CCCC3)CC2)c(C)c1 (stereo not shown) | 101 |

Task: Returns the measured inhibition at 10 µM for the input compound. Input: COc1cc(C)c(S(=O)(=O)N2CCCCC2COCC(=O)N2CCC(c3ccccc3)(N(C)C)CC2)c(C)c1 (stereo not shown)
Output: 100

---

biological target: B1R receptor of the rat (rB1R) (Rattus norvegicus, UniProt P97583); construct: host or cells: CHO K1 cells; assay: FLIPR Ca2+ assay on rB1R-transfected CHO K1 cells, antagonistic action; format: cell-based; settings: CHO-K1, 10 μM test substance; agonist Des-Arg9-bradykinin 100 nM; % of maximum achievable inhibition; read-out: rB1R [10 μM] % inhibition
Sequence (P97583 whole entry): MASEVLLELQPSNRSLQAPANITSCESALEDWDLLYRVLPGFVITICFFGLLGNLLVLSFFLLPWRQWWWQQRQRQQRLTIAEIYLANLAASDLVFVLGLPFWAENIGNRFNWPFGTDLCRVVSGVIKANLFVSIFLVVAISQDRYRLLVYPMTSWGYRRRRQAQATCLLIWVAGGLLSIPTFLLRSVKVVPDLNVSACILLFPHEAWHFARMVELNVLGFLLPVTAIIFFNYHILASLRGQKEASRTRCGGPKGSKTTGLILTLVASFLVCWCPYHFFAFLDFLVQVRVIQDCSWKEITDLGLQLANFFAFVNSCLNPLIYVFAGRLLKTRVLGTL
Each entry below carries its reported inhibition at 10 µM.
A number alone suffices; assume %.

Known inhibition at 10 µM results, listed for orientation:
| COMPOUND | READOUT_KIND | UNIT_SPEC | EXPERIMENTAL_RESULT |
| --- | --- | --- | --- |
| Cc1cc(S(=O)(=O)N2CCCCC2CCC(=O)N2CCC(c3ccccc3)(N3CCN(C)CC3)CC2)c(C)cc1Cl (stereo not drawn) | inhibition at 10 µM | % | 78 |
| COc1cc(C)c(S(=O)(=O)N2CCCC(OCC(=O)NC3CCC(c4ccccc4)(N4CCCC4)CC3)C2)c(C)c1 (stereo not drawn) | inhibition at 10 µM | % | 77 |
| CN(CC1CCC(CCc2ccccc2)(N2CCCC2)CC1)C(=O)CC(NS(=O)(=O)c1ccc2ccccc2c1)c1ccccc1 (stereo not drawn) | inhibition at 10 µM | % | 98 |
| COc1cc(C)c(S(=O)(=O)N2CCCCC2COCC(=O)N2CCC(c3ccccc3)(N3CCN(C)CC3)CC2)c(C)c1 (stereo not drawn) | inhibition at 10 µM | % | 100 |
| COc1cc(C)c(S(=O)(=O)N2CCCC(OCC(=O)N(C)CC3CCC(Cc4ccccc4)(N4CCN(C)CC4)CC3)C2)c(C)c1 (stereo not drawn) | inhibition at 10 µM | % | 65 |

Task: Returns the measured inhibition at 10 µM for the input compound. Input: COc1cc(C)c(S(=O)(=O)N(C)CCOCC(=O)NC2CCC(c3ccccc3)(N3CCOCC3)CC2)c(C)c1 (stereo not drawn)
Output: 88

Task: Returns the measured inhibition at 10 µM for the input compound. Input: CN(CCC1CCC(Cc2ccccc2)(N2CCCC2)CC1)C(=O)CC(NS(=O)(=O)c1ccc2ccccc2c1)c1ccccc1 (stereo not drawn)
Output: 100

Task: Returns the measured inhibition at 10 µM for the input compound. Input: CN1CCN(C2(c3ccccc3)CCN(C(=O)CC(NS(=O)(=O)c3ccc4ccccc4c3)c3ccccc3)CC2)CC1 (stereo not drawn)
Output: 99

---

Target: human B1R receptor (hB1R) (Homo sapiens, UniProt P46663)
Construct: host or cells: CHO K1 cells
Sequence (P46663 1-353): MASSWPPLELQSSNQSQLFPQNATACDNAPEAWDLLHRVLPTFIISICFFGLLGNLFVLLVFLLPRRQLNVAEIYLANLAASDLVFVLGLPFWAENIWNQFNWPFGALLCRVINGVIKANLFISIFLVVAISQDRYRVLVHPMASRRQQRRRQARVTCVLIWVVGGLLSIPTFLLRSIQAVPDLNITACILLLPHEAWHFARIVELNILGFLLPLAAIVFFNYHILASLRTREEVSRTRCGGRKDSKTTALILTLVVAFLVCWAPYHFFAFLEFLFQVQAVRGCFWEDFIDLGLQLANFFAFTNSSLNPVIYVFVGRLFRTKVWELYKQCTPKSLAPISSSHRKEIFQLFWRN
Assay: FLIPR Ca2+ assay on hB1R-transfected CHO K1 cells, antagonistic action
Type: cell-based
Details: CHO-K1, 10 μM test substance; agonist Lys-Des-Arg9-bradykinin 0.5 nM; % of maximum achievable inhibition; read-out: hB1R [10 μM] % inhibition
READOUT_KIND: inhibition at 10 µM (%)
A number alone suffices; assume %.

Known inhibition at 10 µM results, listed for orientation:
| COMPOUND | inhibition at 10 µM / % |
| --- | --- |
| Cc1cc(S(=O)(=O)N2CCCCC2CCC(=O)N(C)CCC2CCC(CCc3ccccc3)(N(C)C)CC2)c(C)cc1Cl (stereo not shown) [Compound 132] | 103 |
| COc1cc(C)c(S(=O)(=O)N2CCCC2COCC(=O)NC2CCC(Cc3ccccc3)(N3CCCC3)CC2)c(C)c1 (stereo not shown) [Compound 151] | 90 |
| COc1cc(C)c(S(=O)(=O)N2CCCC(OCC(=O)NC3CCC(Cc4ccccc4)(N4CCOCC4)CC3)C2)c(C)c1 (stereo not shown) [Compound 190] | 90 |

Task: Returns the measured inhibition at 10 µM for the input compound. Input: O=C(COCC1CCCN1S(=O)(=O)c1c(Cl)cc(Cl)cc1Cl)NC1CCC(c2ccccc2)(N2CCOCC2)CC1 (stereo not shown) [Compound 164]
Output: 74

Task: Returns the measured inhibition at 10 µM for the input compound. Input: Cc1cc(S(=O)(=O)N2CCCCC2CCC(=O)N2CCC(c3ccccc3)(N(C)C)CC2)c(C)cc1Cl (stereo not shown) [Compound 123]
Output: 103

Task: Returns the measured inhibition at 10 µM for the input compound. Input: COc1cc(C)c(S(=O)(=O)N(C)CCOCC(=O)NC2CCC(c3cccc(F)c3)(N(C)C)CC2)c(C)c1 (stereo not shown) [Compound 6]
Output: 100

Task: Returns the measured inhibition at 10 µM for the input compound. Input: COc1cc(C)c(S(=O)(=O)N(C)CCOCC(=O)N2CCC(c3cccnc3)(N(C)C)CC2)c(C)c1 [Compound 208]
Output: 100

---

biological target: B1R receptor of the rat (rB1R) (Rattus norvegicus); construct: host or cells: CHO K1 cells; test: FLIPR Ca2+ assay on rB1R-transfected CHO K1 cells, antagonistic action; format: cell-based; settings: CHO-K1, 10 μM test substance; agonist Des-Arg9-bradykinin 100 nM; % of maximum achievable inhibition; read-out: rB1R [10 μM] % inhibition
READOUT_KIND: inhibition at 10 µM (%)
A number alone suffices; assume %.

Known inhibition at 10 µM results, listed for orientation:
| COMPOUND | inhibition at 10 µM (%) |
| --- | --- |
| COc1cc(C)c(S(=O)(=O)N2CCCCC2COCC(=O)NC2CCC(c3ccccc3)(N3CCOCC3)CC2)c(C)c1 (centres unmarked) | 99 |
| COc1cc(C)c(S(=O)(=O)N2CCCCC2COCC(=O)N2CCC(Cc3ccccc3)(N3CCN(C)CC3)CC2)c(C)c1 (centres unmarked) | 100 |
| COc1cc(C)c(S(=O)(=O)N2CCCCC2COCC(=O)N(C)CC2CCC(Cc3ccccc3)(N3CCCC3)CC2)c(C)c1 (centres unmarked) | 99 |
| O=C(COC1CCN(S(=O)(=O)c2c(Cl)cc(Cl)cc2Cl)C1)NC1CCC(c2ccccc2)(N2CCCC2)CC1 (centres unmarked) | 76 |
| Cc1cc(S(=O)(=O)N2CCCCC2CCC(=O)N2CCC(CCc3ccccc3)(N(C)C)CC2)c(C)cc1Cl (centres unmarked) | 30 |
| CN1CCN(C2(CCc3ccccc3)CCC(CN(C)C(=O)COCC3CCCCN3S(=O)(=O)c3c(Cl)cc(Cl)cc3Cl)CC2)CC1 (centres unmarked) | 98 |
| CN(CCC1CCC(Cc2ccccc2)(N(C)C)CC1)C(=O)CC(NS(=O)(=O)c1ccc2ccccc2c1)c1ccccc1 (centres unmarked) | 99 |
| CN(CCOCC(=O)NC1CCC(Cc2ccccc2)(N2CCCC2)CC1)S(=O)(=O)c1ccc(Cl)cc1Cl (centres unmarked) | 34 |

Task: Returns the measured inhibition at 10 µM for the input compound. Input: COc1cc(C)c(S(=O)(=O)N2CCCC2COCC(=O)NCC2CCC(c3ccccc3)(N3CCOCC3)CC2)c(C)c1 (centres unmarked)
Output: 102

Task: Returns the measured inhibition at 10 µM for the input compound. Input: COc1cc(C)c(S(=O)(=O)N2CCCC(COCC(=O)NC3CCC(Cc4ccccc4)(N4CCCC4)CC3)C2)c(C)c1 (centres unmarked)
Output: 73

Task: Returns the measured inhibition at 10 µM for the input compound. Input: COc1cc(C)c(S(=O)(=O)N(C)CCOCC(=O)N(C)CC2CCC(Cc3ccccc3)(N3CCN(C)CC3)CC2)c(C)c1 (centres unmarked)
Output: 66

Task: Returns the measured inhibition at 10 µM for the input compound. Input: COc1cc(C)c(S(=O)(=O)N2CCCCC2COCC(=O)N(C)CCC2CCC(CCc3ccccc3)(N(C)C)CC2)c(C)c1 (centres unmarked)
Output: 99

Task: Returns the measured inhibition at 10 µM for the input compound. Input: CN1CCN(C2(CCc3ccccc3)CCN(C(=O)CC(NS(=O)(=O)c3ccc4ccccc4c3)c3ccccc3)CC2)CC1 (centres unmarked)
Output: 100

Task: Returns the measured inhibition at 10 µM for the input compound. Input: COc1cc(C)c(S(=O)(=O)N2CCCC2COCC(=O)NC2CCC(Cc3ccccc3)(N3CCOCC3)CC2)c(C)c1 (centres unmarked)
Output: 98

From: patent US20090253669A1
